system: SR; assay: NCI tumour cell line growth inhibition, 48 h
Active and inactive are the calls of the source. Rule as the data show it: active = GI50 up to about 1.1 µM and inactive = higher.
Result Type: GI50

Please review the following examples before continuing.
Query: For C[n+]1c(-c2ccc(/C=N/Nc3n[nH]c(=S)n3N/N=C/c3ccc(-c4cn5ccccc5[n+]4C)cc3)cc2)cn2ccccc21 , write its GI50.
Reply: > 100 µM (inactive)

Query: Fill in GI50 for record C1=C2/CC[C@H](Sc3ccccc3)C2C2(CCCCC/1)OCCO2 (stereo partly drawn)
Reply: 10.7 µM (inactive)

Please state, for each entry, its recorded GI50.
1. Cc1nc([N+](=O)[O-])cn1-c1nc2ccccn2c1[N+](=O)[O-]
2. Cc1ccc2c(c1)C(=O)N(N(C)C)CC(=O)N2
3. CC1=C(N2CC2)C(=O)c2nc3n(c2C1=O)CCC3O (stereo not drawn)
4. CC(NNC(=O)c1cc[n+]([BH2-]C#N)cc1)c1ccccc1F (stereo not drawn)
5. Cc1ccc(/N=N/c2ccc(N)cc2C)c(S(N)(=O)=O)c1

Reply:
["42 µM (inactive)", "> 100 µM (inactive)", "2.25 µM (inactive)", "> 100 µM (inactive)", "0.478 µM (active)"]

Query: Indicate the recorded GI50 value for this compound: N#Cc1nc(-c2ccccn2)c(-c2ccccn2)nc1C#N
Reply: 1.82 µM (inactive)
